Quick reference for Ratio Ki among some compounds
- Organism: Cavia porcellus
- protocol: Selectivity ratio of Ki for sigma 1 receptor in guinea pig brain membranes to Ki for sigma 2 receptor in guinea pig brain membranes
- Assay type: cell membranes
Just the number, please, no unit after it.

Recorded results for 2 compounds are shown here.
>>> df
                                smilesentry  datavalue
0  COC(=O)[C@@]1(c2ccccc2)C[C@H]1CN1[C@@H]2CC[C@H]1C[C@@](O)(c1ccc(Cl)cc1)C2       0.05
1  COC(=O)[C@@]1(c2ccccc2)C[C@H]1CN1CCC(O)(c2ccccc2)CC1       81.4

Switching to the query record.
Prompt line: I have this compound here, COC(=O)[C@]1(c2ccccc2)C[C@@H]1CN1CCC(O)(c2ccccc2)CC1 , and I need its recorded Ratio Ki.
Response line: 5.6

====

- target: Sigma non-opioid intracellular receptor 1 (Cavia porcellus, UniProt Q60492)
- Sequence (Q60492 whole entry): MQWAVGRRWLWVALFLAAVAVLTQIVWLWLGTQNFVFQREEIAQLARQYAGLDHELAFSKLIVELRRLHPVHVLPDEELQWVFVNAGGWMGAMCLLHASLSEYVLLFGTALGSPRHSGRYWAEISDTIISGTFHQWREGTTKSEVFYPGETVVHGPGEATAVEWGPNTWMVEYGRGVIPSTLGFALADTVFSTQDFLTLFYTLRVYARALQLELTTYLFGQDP
- protocol: Displacement of [3H]-(+)-pentazocine from sigma 1 receptor in guinea pig brain membranes after 150 mins
Listing of entries alongside the reported pKi.
# pKi: negative log10 of molar concentration; output just the value

                                   compound  datavalue
0  COC(=O)[C@@]1(c2ccccc2)C[C@H]1CN1[C@@H]2CC[C@H]1C[C@@](O)(c1ccc(Cl)cc1)C2       6.28
1  COC(=O)[C@@]1(c2ccccc2)C[C@H]1CN1CCC(O)(c2ccc(Cl)cc2)CC1       8.25
2  COC(=O)[C@]1(c2ccccc2)C[C@@H]1CN1CCC(O)(c2ccccc2)CC1       8.30
3  COC(=O)[C@]1(c2ccccc2)C[C@@H]1CN1CCC(O)(c2ccc(Cl)cc2)CC1       8.40
4  COC(=O)[C@]1(c2ccccc2)C[C@@H]1CN1C2C=C(c3ccc(Cl)cc3)CC1CC2 (mixture of isomers)       6.40
5  COC(=O)[C@@]1(c2ccccc2)C[C@H]1CN1CCC(O)(c2ccccc2)CC1       8.15
6  COC(=O)[C@@]1(c2ccccc2)C[C@H]1CN1C2C=C(c3ccc(Cl)cc3)CC1CC2 (mixture of isomers)       6.70
7  O=C(CCCc1ccccc1)OC(CCCN1CCC(O)(c2ccc(Cl)cc2)CC1)c1ccc(F)cc1 (racemic)       8.27

Switching to the query record.
Prompt line: I'm curious: which pKi was measured for COC(=O)[C@]1(c2ccccc2)C[C@@H]1CN1[C@@H]2CC[C@H]1C[C@@](O)(c1ccc(Cl)cc1)C2 tested on Sigma non-opioid intracellular receptor 1 (Cavia porcellus, UniProt Q60492)?
Response line: 7.36

====

- Organism: Cavia porcellus
- protocol: Selectivity ratio of Ki for sigma 1 receptor in guinea pig brain membranes to Ki for sigma 2 receptor in guinea pig brain membranes
- Format: cell membranes
resultType: Ratio Ki
Write the number on its own, no unit after it.

Prompt line: // Ratio Ki lookup, key: COC(=O)[C@]1(c2ccccc2)C[C@@H]1CN1C2C=C(c3ccc(Cl)cc3)CC1CC2 (mixture of isomers)
Response line: 2.4

Prompt line: Further, for COC(=O)[C@@]1(c2ccccc2)C[C@H]1CN1C2C=C(c3ccc(Cl)cc3)CC1CC2 (mixture of isomers) ?
Response line: 2.8

Prompt line: Let us now turn to O=C(CCCc1ccccc1)OC(CCCN1CCC(O)(c2ccc(Cl)cc2)CC1)c1ccc(F)cc1 (racemic)
Response line: 0.18

Prompt line: Follow-up item: COC(=O)[C@]1(c2ccccc2)C[C@@H]1CN1[C@@H]2CC[C@H]1C[C@@](O)(c1ccc(Cl)cc1)C2
Response line: 1.3

Source of measurements: ChEMBL document CHEMBL1772975
